molecular target: EGFR expressed on the surface of cells (A431, A549, MCF7 and other EGFR-expressing cell lines) (human, UniProt P00533 25-1210); test: cell-based or functional assay
READOUT KIND: IC50 (M), inhibition of EGF-stimulated EGFR auto-phosphorylation in A549 cells
I only need the number, in M, no unit after it.

Solved cases (2 shown):
• D2GA4 (antibody, V domains shown) VH: EVQLVESGGGVVQPGRSLRLSCAASGFIFHHYAMHWVRQAPGKGLEWVAHISSDGSSKFYADSVKGRFTVSRDNSKNTLYLQMNSLRAEDTAVYYCARFTEVLYYGADLWGQGTLVTVSS VL: QSVLTQPPSVSEAPRQRVSISCSGSSSNIGDNAVNWYQQLPGKAPKLLIYYDDLHPSGVSDRFSGSKSGTSASLAISGLQSEDEADYYCAAWDDSLKGYVFGTGTKVTVL = 1.7e-10
• D2GG1 (antibody, V domains shown) VH: EVQLVESGGGVVQPGRSLRLSCAASGFTFSHYAMHWVRQAPGKGLEWVAHISLDGSSKFYADSVKGRFTVSRDNSKNTLYLQMNSLRAEDTAVYYCARFTEVLYYGADLWGQGTLVTVSS VL: QSVLTQPPSVSEAPRQRVSISCSGSSSNIGNNAVNWYQQLPGKAPKLLIYYDDLLPSGVSDRFSGSKSGTSASLAISGLQSEDEADYYCAAWDDSLKGYVFGTGTKVTVL = 8.9e-10

# context switch: different binder, same IC50 (M), inhibition of EGF-stimulated EGFR auto-phosphorylation in A549 cells
Prompt: Supply recorded IC50 (M), inhibition of EGF-stimulated EGFR auto-phosphorylation in A549 cells for D2GA2 (antibody, V domains shown) VH: EVQLVESGGGVVQPGRSLRLSCAASGFIFHHYAMHWVRQAPGKGLEWVAHISPDGSSKFYADSVKGRFTVSRDNSKNTLYLQMNSLRAEDTAVYYCARFTEVLYYGADIWGQGTLVTVSS VL: QSVLTQPPSVSEAPRQRVSISCSGSSSNIGNNAVNWYQQLPGKAPKLLIYFDDLLPSGVSDRFSGSKSGTSASLAISGLQSEDEADYYCAAWDDSLKGYVFGTGTKVTVL here.
Response: 1.8e-10
